I'd be grateful if you could share measured pIC50 for these entries.
Test: Cytotoxicity against human HeLaS3 cells after 24 hrs by celltiter-glo assay
Assay type: cell-based
Conditions: HeLa S3, 24 h
Please express pIC50 as -log10 of the molar concentration.

Which pIC50 value belongs to Nc1ncnc2c1ccn2[C@@H]1O[C@H](CO)[C@@H](O)[C@H]1O [TUBERCIDIN] ?
6.09

What pIC50 value was documented for this compound, Cc1ncnc2c1ncn2[C@@H]1O[C@H](CO)[C@@H](O)[C@H]1O ?
5.18

====

Test: Cytotoxicity against human HeLaS3 cells after 48 hrs by celltiter-glo assay
Format: cell-based
Conditions: HeLa S3, 48 h
REPORTED_METRIC: IC50 (nM)
The response must be a number in nM with no trailing unit.

I would be grateful if you could share the reported IC50 for Nc1ncnc2c1ccn2[C@@H]1O[C@H](CO)[C@@H](O)[C@H]1O .
400

Any idea what IC50 was measured for Cc1ncnc2c1ncn2[C@@H]1O[C@H](CO)[C@@H](O)[C@H]1O ?
2200

State the recorded IC50 for this entry: Cc1ncnc2c1ccn2[C@@H]1O[C@H](CO)[C@@H](O)[C@H]1O
224
